Molecular target: purified human recombinant MTH1 (human MTH1, residues 42-197) (Homo sapiens)
Construct: human MTH1, residues 42-197, Uniprot-ID: P36639, expressed in E. coli; made in house; host or cells: E. coli
Assay: MTH1 enzymatic assay (luminescence-based, PPiLight)
Format: biochemical
Settings: 6 μM 8-oxo-dGTP, Table 1, grouped
pIC50: −log10 of the molar value.
measuredProperty: pIC50

Problem: Item C[C@H]1[C@H](c2ccccc2)CCN1c1cc(NC2CC2)nc(N)n1 (stereo in doubt) [Example 55] has what recorded pIC50?
Solution: 7.00 to 9.00

Problem: Fill blank: measured pIC50 of the compound Nc1nc(NC2CC2)cc(N2C[C@H](O)CC2=O)n1 [Example 86] is ____.
Solution: < 7.00

Problem: Requested field: pIC50. Item: CNc1cc(N2CC[C@H](O)C2)nc(N)n1 [Example 62]
Solution: 7.00 to 9.00

Problem: Looking for the measured pIC50 of Nc1nc(NC2CC2)cc(N2CCC(O)(c3ccccc3)C2)n1 (stereo not drawn) [Example 32] , can you help?
Solution: 7.00 to 9.00

Problem: Query: pIC50; subject: Nc1nc(NC2CC2)cc(N2CC[C@@H](O)C2)n1 [Example 29]
Solution: 7.00 to 9.00

Problem: What value of measured pIC50 is listed for Nc1nc(NC2CC2)cc(N2CCCC2CC(=O)O)n1 (stereo not drawn) [Example 97] ?
Solution: 7.00 to 9.00

Problem: Look up pIC50 for this compound: CNc1cc(N2CCCC2c2ccsc2)nc(N)n1 (stereo not drawn) [Example 111]
Solution: > 9.00

Problem: Returns the measured pIC50 for the input compound. Input: Nc1nc2c(c(N3CC[C@@H](O)C3)n1)CCCN2 [Example 70]
Solution: > 9.00

Problem: What measured pIC50 goes with Nc1nc(NC2CC2)cc(N2CC[C@](O)(c3ccccc3)C2)n1 (single isomer, unassigned) [Example 37] ?
Solution: 7.00 to 9.00

====

Target: purified human recombinant MTH1 (human MTH1, residues 42-197) (Homo sapiens, UniProt P36639)
Construct: human MTH1, residues 42-197, Uniprot-ID: P36639, expressed in E. coli; made in house; host or cells: E. coli
Test: MTH1 enzymatic assay (luminescence-based, PPiLight)
Type: biochemical
Settings: 6 μM 8-oxo-dGTP, Table 1, grouped
pIC50: −log10 of the molar value. Structures can show the parent of a compound that is named as a salt.
measuredProperty: pIC50

Problem: Requested field: pIC50. Item: CC1CCCN1c1cc(NC2CC2)nc(N)n1 (stereo not shown)
Solution: 7.00 to 9.00

Problem: Would you kindly share the measured pIC50 for NC(=O)C1CCN(c2cc(NC3CC3)nc(N)n2)C1 (stereo not shown) ?
Solution: 7.00 to 9.00

Problem: Recorded pIC50 of CNc1cc(N2CC(c3ccccc3)CC2=O)nc(N)n1 (stereo not shown) , please.
Solution: < 7.00

Problem: Which measured pIC50 value corresponds to C[C@@H]1C(c2ccccc2)CCN1c1cc(NC2CC2)nc(N)n1 (stereo in doubt) ?
Solution: 7.00 to 9.00

Problem: Which pIC50 value belongs to Nc1nc(NC2CC2)cc(N2C(=O)CCC2c2ccc(Cl)cc2)n1 (stereo not shown) ?
Solution: < 7.00

Problem: Can you share its pIC50? I mean this compound: `CNc1cc(N2CCC[C@@H]2CO)nc(N)n1`
Solution: 7.00 to 9.00

Problem: Suppose we examine the compound Nc1nc(NC2CC2)cc(N2CCCC2C(=O)O)n1 (stereo not shown) ; what pIC50 value has been reported?
Solution: < 7.00

Problem: Can you look up the measured pIC50 of CNc1cc(N2CCCC2C2CCCC2)nc(N)n1 (stereo not shown) for me?
Solution: > 9.00

Problem: Need pIC50 of COC1CCN(c2cc(NC3CC3)nc(N)n2)C1 (stereo not shown) [Example 10, formate] , thanks.
Solution: 7.00 to 9.00

Problem: Entry `Nc1nc(NC2CC2)cc(N2CCC[C@@H]2Cc2ccccc2Cl)n1` : reported pIC50 = ?
Solution: > 9.00
